From: ChEMBL document CHEMBL3868641

Below, each of the compounds is paired with its reported inhibition value.
# measuredTarget: D(2) dopamine receptor (Homo sapiens) (UniProt P14416)
# Sequence (P14416 whole entry): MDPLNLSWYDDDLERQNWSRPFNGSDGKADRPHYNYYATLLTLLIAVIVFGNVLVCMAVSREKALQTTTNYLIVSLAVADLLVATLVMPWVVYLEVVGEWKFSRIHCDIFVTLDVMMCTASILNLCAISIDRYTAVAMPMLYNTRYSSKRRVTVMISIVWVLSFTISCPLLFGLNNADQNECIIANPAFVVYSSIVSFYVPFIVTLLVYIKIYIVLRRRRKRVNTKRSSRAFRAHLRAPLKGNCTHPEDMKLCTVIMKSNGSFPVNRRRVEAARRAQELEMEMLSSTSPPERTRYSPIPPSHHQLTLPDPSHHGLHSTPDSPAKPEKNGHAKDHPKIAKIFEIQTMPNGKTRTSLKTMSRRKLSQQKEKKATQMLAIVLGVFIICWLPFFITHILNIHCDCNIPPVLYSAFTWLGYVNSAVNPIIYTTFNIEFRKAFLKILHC
# experimentNotes: Displacement of [3H]Spiperone from recombinant human Dopamine D2L receptor expressed in CHO cell membranes at 10 uM after 120 mins relative to control
Could you give me the number in %? Just the number is fine.

structureSmilesString: Fc1ccc2c(CN3CCC(F)(F)[C@H](CCc4ccccc4F)C3)c[nH]c2c1
inhibition, %: 51
//
structureSmilesString: Fc1ccc2c(CN3CCC(F)(F)[C@@H](CCc4ccccc4F)C3)c[nH]c2c1
inhibition, %: 57
//
structureSmilesString: Fc1ccc(CC[C@@H]2CN(Cc3c[nH]c4cc(F)ccc34)CCC2(F)F)cc1
inhibition, %: 53

Proceeding to the next compound to report its inhibition.
(Q) # query: inhibition of entry `Fc1ccc(CC[C@@H]2CN(Cc3c[nH]c4cc(Cl)ccc34)CCC2(F)F)cc1`
(A) 51
